assay text: in vitro
property measured: viability at 4 days, 100 μM (%)

INSERT INTO measurements (structure_smiles_string, measured) VALUES
  ('CC(C)C1=C2[C@H]3CC[C@@H]4[C@@]5(C)CC[C@H](OC(=O)[C@H]6C[C@@H](C(=O)O)C6(C)C)C(C)(C)[C@@H]5CC[C@@]4(C)[C@]3(C)CC[C@@]2(C(=O)N2CCC[C@H]2CN2CCCC2)CC1=O', 28),
  ('CC(C)C1=C2[C@H]3CC[C@@H]4[C@@]5(C)CC[C@H](OC(=O)[C@H]6C[C@@H](C(=O)O)C6(C)C)C(C)(C)[C@@H]5CC[C@@]4(C)[C@]3(C)CC[C@@]2(C(=O)N2CCC[C@H]2C(C)(C)O)CC1=O', 8),
  ('CC(C)C1=C2[C@H]3CC[C@@H]4[C@@]5(C)CC[C@H](OC(=O)[C@H]6C[C@@H](C(=O)O)C6(C)C)C(C)(C)[C@@H]5CC[C@@]4(C)[C@]3(C)CC[C@@]2(C(=O)N2CCC[C@H]2c2ncc(-c3ccc(F)cc3)[nH]2)CC1=O', 90),
  ('CC(C)C1=C2[C@H]3CC[C@@H]4[C@@]5(C)CC[C@H](OC(=O)[C@H]6C[C@@H](C(=O)O)C6(C)C)C(C)(C)[C@@H]5CC[C@@]4(C)[C@]3(C)CC[C@@]2(C(=O)N2CCC[C@H]2CN2CCC(F)CC2)CC1=O', 4),
  ('CC(C)C1=C2[C@H]3CC[C@@H]4[C@@]5(C)CC[C@H](OC(=O)[C@H]6C[C@@H](C(=O)O)C6(C)C)C(C)(C)[C@@H]5CC[C@@]4(C)[C@]3(C)CC[C@@]2(C(=O)N2CC[C@@H](N3CCCC3)C2)CC1=O', 2),
  ('CC(C)C1=C2[C@H]3CC[C@@H]4[C@@]5(C)CC[C@H](OC(=O)[C@H]6C[C@@H](C(=O)O)C6(C)C)C(C)(C)[C@@H]5CC[C@@]4(C)[C@]3(C)CC[C@@]2(C(=O)NC(C)(C)c2ncc(-c3ccccc3)[nH]2)CC1=O', 2),
  ('CC(C)C1=C2[C@H]3CC[C@@H]4[C@@]5(C)CC[C@H](OC(=O)[C@H]6C[C@@H](C(=O)O)C6(C)C)C(C)(C)[C@@H]5CC[C@@]4(C)[C@]3(C)CC[C@@]2(C(=O)N2CCC[C@H]2CN2CCC(F)(F)C2)CC1=O', 6),
  ('CC(C)C1=C2[C@H]3CC[C@@H]4[C@@]5(C)CC[C@H](OC(=O)[C@H]6C[C@@H](C(=O)O)C6(C)C)C(C)(C)[C@@H]5CC[C@@]4(C)[C@]3(C)CC[C@@]2(C(=O)NC(C)(C)CN2CCCC2)CC1=O', 96);

====

assay text: in vitro
Reported viability at 4 days, 30 μM by item:
property measured: viability at 4 days, 30 μM (%)

INSERT INTO measurements (molecule, property_measured, measured) VALUES
  ('CC(C)C1=C2[C@H]3CC[C@@H]4[C@@]5(C)CC[C@H](OC(=O)[C@H]6C[C@@H](C(=O)O)C6(C)C)C(C)(C)[C@@H]5CC[C@@]4(C)[C@]3(C)CC[C@@]2(C(=O)N2CCCC2c2ncc(-c3ccccc3)[nH]2)CC1=O (some centres unmarked)', 'viability at 4 days, 30 μM', 67),
  ('CC(C)C1=C2[C@H]3CC[C@@H]4[C@@]5(C)CC[C@H](OC(=O)[C@H]6C[C@@H](C(=O)O)C6(C)C)C(C)(C)[C@@H]5CC[C@@]4(C)[C@]3(C)CC[C@@]2(C(=O)N2CCC[C@H]2CN2CCCC2)CC1=O', 'viability at 4 days, 30 μM', 26);
